Several reports have described IC50 for MAGL (Homo sapiens, UniProt Q99685); a selection of those results is presented here.
Output: class label from IC50. Mapping: low range = under 20 nM, mid range = from 20 nM up to 100 nM, high range = 100 nM and over

These solved cases illustrate the format of a correct answer.
> print(dat)
                                   compound         cat
1  COc1cccc(C(=O)N2CCN3CC(c4ccc(F)c(-c5ccn(C)c5)c4)OC[C@@H]3C2)c1Cl (some centres unmarked)  high range
2  O=C(c1ccc2c(c1)CCN(c1ncccn1)C2)N1CC(N2CCN(C(=O)c3nccs3)CC2)C1   low range
3  CC(C)(C)c1nnc(-c2ccc(C(=O)N3CCN(c4nc5nc(Cl)ccc5o4)CC3)cc2C(F)(F)F)o1   low range
4  O=C1N[C@H](CCC(=O)N2CC(c3ccc(N4CCC(C(F)(F)F)C4)cn3)C2)CO1 (some centres unmarked)   mid range
5  O=C(c1nccs1)N1CC(N2CCN(C(=O)c3ccc(-c4ccccc4)cc3)C(Cc3ccccc3)C2)C1 (centres unmarked)  high range

Input: Hi there! Could you help me figure out the category for O=C1CO[C@H]2CCN(C(=O)N3CCC(c4cccc(OC(F)(F)F)c4)C3)C[C@H]2N1 (single isomer, unassigned) please?
Output: high range

Input: Hi there! Could you help me figure out the category for O=C(c1ccc(Sc2cccc(C(F)(F)F)c2)cc1)N1CC(N2CCN(C(=O)c3cscn3)CC2)C1 please?
Output: low range

Input: Hi there! Could you help me figure out the category for Cc1c(C(=O)N2CC(N3CCN(C(=O)c4cscn4)CC3)C2)sc2cc(C(F)(F)F)ccc12 please?
Output: low range
